# maps each entry to its IC50
# target_desc: UniProtKB P0DTD1
# assay_text: Inhibition of SARS-CoV-2 3CLPro using DabcylKNSTLQSGLRK-Edans as substrate measured after 3 mins by FRET assay
measure_name: IC50 (nM)

INSERT INTO results (smiles_string, measure_name, unit, result_number) VALUES
  ('O=C(/C=C/c1c(Cl)c(O)c(O)c(O)c1Cl)c1ccc(F)cc1', 'IC50', 'nM', 211),
  ('O=C(/C=C/c1cc(O)c(O)c(O)c1)c1ccc(F)cc1', 'IC50', 'nM', 461);

###

# assay_text: Cytotoxicity against mouse RAW264.7 cells assessed as cell viability at 10 uM incubated for 24 hrs by CCK8 assay relative to control
# Format: toxicity, cell-based
# applied_conditions: read-out: Activity
measure_name: viability at 24 h, 10 µM (%)

INSERT INTO measurements (smiles_string, result_number) VALUES
  ('O=C(/C=C/c1c(Cl)c(O)c(O)c(O)c1Cl)c1ccc(C(F)(F)F)cc1', 36.6),
  ('O=C(/C=C/c1cc(O)c(O)c(O)c1)c1ccc(F)cc1', 109),
  ('O=C(O)/C=C/c1c(Cl)c(O)c(O)c(O)c1Cl', 92.4),
  ('O=C(/C=C/c1c(Cl)c(O)c(O)c(O)c1Cl)c1ccc([N+](=O)[O-])cc1', 110),
  ('O=C(/C=C/c1c(Cl)c(O)c(O)c(O)c1Cl)c1ccco1', 82.2);

###

# target_desc: Replicase polyprotein 1ab (Severe acute respiratory syndrome coronavirus 2, UniProt P0DTD1)
measure_name: EC50

INSERT INTO assay_data (smiles_string, measure_name, result) VALUES
  ('O=C(O)[C@H](O)Cc1ccc(O)c(O)c1', 'EC50', '> 50 µM');

###

# target_desc: Replicase polyprotein 1ab (Severe acute respiratory syndrome coronavirus 2)
pKi: −log10 of the molar value.
measure_name: pKi

INSERT INTO measurements (smiles_string, measure_name, result_number) VALUES
  ('O=C(/C=C/c1cc(O)c(O)c(O)c1)c1ccc(F)cc1', 'pKi', 6.10);

###

# target_desc: Replicase polyprotein 1ab (Severe acute respiratory syndrome coronavirus 2)
# assay_text: Inhibition of SARS-CoV-2 3CLPro using DabcylKNSTLQSGLRK-Edans as substrate measured after 60 mins by FRET assay
# maps each entry to its IC50
measure_name: IC50 (nM)

INSERT INTO results (smiles_string, unit, result_number) VALUES
  ('O=C(/C=C/c1cc(O)c(O)c(O)c1)c1ccc(F)cc1', 'nM', 93.4),
  ('O=C(/C=C/c1c(Cl)c(O)c(O)c(O)c1Cl)c1ccc(F)cc1', 'nM', 110);

###

# maps each entry to its inhibition
# target_desc: Replicase polyprotein 1ab (Severe acute respiratory syndrome coronavirus 2)
# assay_text: Inhibition of SARS-CoV-2 3CLPro using DabcylKNSTLQSGLRK-Edans as substrate at 50 uM preincubated for 30 mins followed by substrate addition measured after 20 mins by FRET assay relative to control
# applied_conditions: time 50.0 min
measure_name: inhibition (%)

INSERT INTO results (smiles_string, unit, result_number) VALUES
  ('O=C(/C=C/c1c(Cl)c(O)c(O)c(O)c1Cl)c1ccc(F)cc1', '%', -0.1),
  ('O=C(CCc1cc(O)c(O)c(O)c1)c1ccc(F)cc1', '%', 6.3),
  ('O=C(/C=C/c1c(Cl)c(O)c(O)c(O)c1Cl)c1cccs1', '%', -0.9),
  ('O=C(/C=C/c1c(Cl)c(O)c(O)c(O)c1Cl)c1ccco1', '%', -0.7);

###

# target_desc: Replicase polyprotein 1ab (Severe acute respiratory syndrome coronavirus 2, UniProt P0DTD1)
# assay_text: Mixed inhibition of SARS-CoV-2 3CLPro using DabcylKNSTLQSGLRK-Edans as substrate by FRET assay
pKi: −log10 of the molar value.
measure_name: pKi

INSERT INTO assay_data (smiles_string, result_number) VALUES
  ('O=C(/C=C/c1c(Cl)c(O)c(O)c(O)c1Cl)c1ccc(F)cc1', 6.70);

###

# assay_text: Cytotoxicity against mouse RAW264.7 cells assessed as cell viability at 10 uM incubated for 24 hrs by CCK8 assay relative to control
# Type: toxicity, cell-based
# applied_conditions: read-out: Activity
Label yes (1) when viability at 24 h, 10 µM is strictly below 80%; at or above that, label no (0).

INSERT INTO assay_data (smiles_string, label_value) VALUES
  ('O=C(/C=C/c1c(Cl)c(O)c(O)c(O)c1Cl)c1cccc(-c2ccc(Cl)c(Cl)c2)c1', 'yes (1)'),
  ('O=C(/C=C/c1c(Cl)c(O)c(O)c(O)c1Cl)c1ccc(Cl)cc1Cl', 'yes (1)'),
  ('O=C(/C=C/c1c(Cl)c(O)c(O)c(O)c1Cl)c1ccc(F)cc1F', 'no (0)'),
  ('O=C(/C=C/c1c(Cl)c(O)c(O)c(O)c1Cl)c1ccc(F)cc1', 'yes (1)'),
  ('CC(=O)Oc1c(Cl)c(/C=C/C(=O)c2ccc(F)cc2)c(Cl)c(OC(C)=O)c1OC(C)=O', 'no (0)'),
  ('O=C(/C=C/c1c(Cl)c(O)c(O)c(O)c1Cl)c1c(Cl)c(O)c(O)c(O)c1Cl', 'yes (1)'),
  ('O=C(/C=C/c1c(Cl)c(O)c(O)c(O)c1Cl)c1ccc(Cl)c(Cl)c1', 'yes (1)'),
  ('Oc1cc(CCCc2ccc(F)cc2)cc(O)c1O', 'no (0)'),
  ('O=C(CCc1cc(O)c(O)c(O)c1)c1ccc(F)cc1', 'no (0)'),
  ('O=C(/C=C/c1cc(O)c(O)c(O)c1Cl)c1ccc(F)cc1', 'no (0)'),
  ('O=C(/C=C/c1c(Cl)c(O)c(O)c(O)c1Cl)c1cccs1', 'no (0)'),
  ('O=C(/C=C/c1c(Cl)c(O)c(O)c(O)c1Cl)c1ccccc1F', 'no (0)'),
  ('O=C(/C=C/c1c(Cl)c(O)c(O)c(O)c1Cl)c1ccc(-c2ccc(F)cc2)cc1', 'yes (1)'),
  ('O=C(/C=C/c1c(Cl)c(O)c(O)c(O)c1Cl)c1ccc(F)cc1Cl', 'no (0)'),
  ('O=C(/C=C/c1c(Cl)c(O)c(O)c(O)c1Cl)c1ccc(Br)cc1', 'yes (1)'),
  ('O=C(/C=C/c1c(Cl)c(O)c(O)c(O)c1Cl)c1ccc(Cl)cc1', 'yes (1)'),
  ('O=C(O)/C=C/c1c(Cl)c(O)c(O)c(O)c1Br', 'yes (1)'),
  ('O=C(/C=C/c1c(Cl)c(O)c(O)c(O)c1Cl)c1c(Cl)cc(Cl)cc1Cl', 'yes (1)'),
  ('O=C(/C=C/c1c(Cl)c(O)c(O)c(O)c1Cl)c1ccc(O)cc1', 'no (0)'),
  ('O=C(/C=C/c1c(Cl)c(O)c(O)c(O)c1Cl)c1ccccc1', 'yes (1)'),
  ('O=C(/C=C/c1c(Cl)c(O)c(O)c(O)c1Cl)c1c(Cl)cc(F)cc1Cl', 'yes (1)');

###

# assay_text: Cytotoxicity against mouse RAW264.7 cells assessed as cell viability at 1 uM incubated for 24 hrs by CCK8 assay relative to control
# Type: toxicity, cell-based
# applied_conditions: read-out: Activity
Label true when viability at 24 h, 1 µM is strictly below 60%; at or above that, label false.

INSERT INTO measurements (smiles_string, label_value) VALUES
  ('O=C(/C=C/c1c(Cl)c(O)c(O)c(O)c1Cl)c1ccc(-c2ccc(F)cc2)cc1', 'true'),
  ('O=C(/C=C/c1c(Cl)c(O)c(O)c(O)c1Cl)c1c(Cl)c(O)c(O)c(O)c1Cl', 'true'),
  ('O=C(/C=C/c1c(Cl)c(O)c(O)c(O)c1Cl)c1ccc(Cl)c(Cl)c1', 'false'),
  ('O=C(/C=C/c1cc(O)c(O)c(O)c1Cl)c1ccc(F)cc1', 'false'),
  ('O=C(/C=C/c1cc(O)c(O)c(O)c1)c1ccc(F)cc1', 'false');

###

# target_desc: Replicase polyprotein 1ab (Severe acute respiratory syndrome coronavirus 2) (UniProt P0DTD1)
# assay_text: Inhibition of SARS-CoV-2 3CLPro using DabcylKNSTLQSGLRK-Edans as substrate at 5 uM preincubated for 30 mins followed by substrate addition measured after 20 mins by FRET assay relative to control
# applied_conditions: time 50.0 min
# maps each entry to its inhibition
measure_name: inhibition (%)

INSERT INTO assay_data (smiles_string, result_number) VALUES
  ('O=C(/C=C/c1c(Cl)c(O)c(O)c(O)c1Cl)c1ccc(F)cc1Cl', 1.1),
  ('O=C(/C=C/c1cc(O)c(O)c(O)c1Cl)c1ccc(F)cc1', 1.1),
  ('O=C(/C=C/c1c(Cl)c(O)c(O)c(O)c1Cl)c1cccc(-c2ccc(Cl)c(Cl)c2)c1', 79.3),
  ('Oc1cc(CCCc2ccc(F)cc2)cc(O)c1O', 18),
  ('O=C(/C=C/c1c(Cl)c(O)c(O)c(O)c1Cl)c1ccc(Br)cc1', 1),
  ('O=C(O)/C=C/c1c(Cl)c(O)c(O)c(O)c1Br', 30.7),
  ('O=C(O)CCc1c(Cl)c(O)c(O)c(O)c1Cl', 76.4),
  ('CC(=O)Oc1c(Cl)c(/C=C/C(=O)c2ccc(F)cc2)c(Cl)c(OC(C)=O)c1OC(C)=O', 1.1),
  ('O=C(/C=C/c1c(Cl)c(O)c(O)c(O)c1Cl)c1ccc(F)cc1F', 1.1),
  ('O=C(/C=C/c1c(Cl)c(O)c(O)c(O)c1Cl)c1c(Cl)cc(Cl)cc1Cl', 1.2),
  ('O=C(CCc1cc(O)c(O)c(O)c1)c1ccc(F)cc1', 21.4);
